Target: Sodium-dependent serotonin transporter (Homo sapiens)
Sequence (P31645 whole entry, looked up): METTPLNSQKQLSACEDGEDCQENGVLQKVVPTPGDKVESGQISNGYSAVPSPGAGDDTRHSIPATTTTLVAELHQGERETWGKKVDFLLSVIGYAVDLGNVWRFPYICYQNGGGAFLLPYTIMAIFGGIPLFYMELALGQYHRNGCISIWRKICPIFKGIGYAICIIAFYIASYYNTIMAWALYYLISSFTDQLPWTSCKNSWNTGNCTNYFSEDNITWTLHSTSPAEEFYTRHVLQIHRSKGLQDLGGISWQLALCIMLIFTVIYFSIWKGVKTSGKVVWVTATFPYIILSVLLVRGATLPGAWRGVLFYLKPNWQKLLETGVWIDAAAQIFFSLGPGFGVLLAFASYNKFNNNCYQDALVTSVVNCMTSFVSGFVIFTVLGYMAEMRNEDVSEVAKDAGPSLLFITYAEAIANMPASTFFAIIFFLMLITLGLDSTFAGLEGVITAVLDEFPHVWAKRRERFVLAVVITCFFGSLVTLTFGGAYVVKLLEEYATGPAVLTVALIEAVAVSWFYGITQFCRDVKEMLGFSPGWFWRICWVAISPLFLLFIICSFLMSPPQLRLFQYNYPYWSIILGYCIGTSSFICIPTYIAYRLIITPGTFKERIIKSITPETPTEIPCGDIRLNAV
Test: Displacement of [3H]imipramin from human recombinant SERT over-expressed in HEK293 cells at 10 uM
Format: cell-based
Consider the following molecules and their measured inhibition readings.
Give a bare numeral; the unit % is implied.

The reported inhibition of the molecule O=C1NCC(c2ccc(Cl)c(Cl)c2)C1c1ccccc1 (stereo not drawn) was 49

The reported inhibition of the molecule O=C1NCC(c2ccc(Cl)cc2)C1c1ccccc1Cl (stereo not drawn) was 49

The reported inhibition of the molecule O=C1NCC(c2cccc(Cl)c2)C1c1ccc(Cl)cc1 (stereo not drawn) was 49

====

Biological target: Sodium-dependent serotonin transporter (Homo sapiens)
Conditions: HEK293, at 10 µM
Description: Inhibition of human SERT-mediated serotonin uptake expressed in HEK293 cells at 10 uM after 15 mins by fluorescence plate reader analysis
Binary classification by inhibition, with 20% as an inclusive lower bound for Satisfied; all other cases are Not satisfied.

Worked examples follow.
O=C1NCC(c2ccccc2Cl)C1c1ccc(Cl)c(Cl)c1 (stereo unspecified): Not satisfied
O=C1NCC(c2ccc(Cl)cc2)C1c1ccc2ccccc2c1 (stereo unspecified): Satisfied
O=C1NCC(c2cccc(Cl)c2)C1c1ccccc1 (stereo unspecified): Satisfied
O=C1NCC(c2ccccc2Cl)C1c1ccc2ccccc2c1 (stereo unspecified): Not satisfied

Determine whether this molecule has inhibition no lower than 20%: O=C1NCC(c2ccccc2Cl)C1c1ccccc1Cl (stereo unspecified) Not satisfied

====

Target: Sodium-dependent dopamine transporter (Homo sapiens)
Sequence (Q01959 whole entry): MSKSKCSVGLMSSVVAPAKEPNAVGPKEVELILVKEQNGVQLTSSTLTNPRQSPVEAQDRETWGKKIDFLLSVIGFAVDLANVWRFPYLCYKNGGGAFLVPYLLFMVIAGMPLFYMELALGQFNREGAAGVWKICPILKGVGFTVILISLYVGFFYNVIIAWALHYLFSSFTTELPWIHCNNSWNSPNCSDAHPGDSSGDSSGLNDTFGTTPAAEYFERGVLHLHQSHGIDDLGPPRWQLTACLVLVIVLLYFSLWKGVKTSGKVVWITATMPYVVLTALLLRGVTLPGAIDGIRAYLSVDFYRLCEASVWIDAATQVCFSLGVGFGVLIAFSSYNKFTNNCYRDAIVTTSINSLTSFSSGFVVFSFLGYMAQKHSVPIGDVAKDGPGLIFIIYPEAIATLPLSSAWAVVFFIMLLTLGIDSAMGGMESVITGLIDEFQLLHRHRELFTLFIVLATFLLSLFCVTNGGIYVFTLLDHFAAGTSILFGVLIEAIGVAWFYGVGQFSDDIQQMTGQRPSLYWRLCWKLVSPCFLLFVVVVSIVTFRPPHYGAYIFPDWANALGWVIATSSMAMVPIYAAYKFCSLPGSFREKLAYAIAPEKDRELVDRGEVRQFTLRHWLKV
Assay: Displacement of [3H]Win35428 from human recombinant DAT over-expressed in CHOK1 cells at 10 uM
Type: cell-based
Details: CHO-K1
assayEndpoint: inhibition (%)
Give a bare numeral; the unit % is implied.

The reported inhibition of the compound O=C1NCC(c2ccccc2Cl)C1c1ccc(Cl)c(Cl)c1 (configuration not stated) was 87

The reported inhibition of the compound `Clc1ccc2c(c1Cl)CC[C@H]1NC[C@H](c3ccccc3)[C@@H]21` was 5

The reported inhibition of the compound O=C1NCC(c2ccccc2Cl)C1c1ccccc1Cl (configuration not stated) was 45

The reported inhibition of the compound `Clc1cccc2c1CC[C@H]1NC[C@H](c3ccccc3)[C@@H]21` was 5

The reported inhibition of the compound O=C1NCC(c2ccccc2Cl)C1c1ccccc1 (configuration not stated) was 70

====

Target: Sodium-dependent serotonin transporter (Homo sapiens)
Conditions: HEK293, at 10 µM
assayEndpoint: inhibition (%)
Give a bare numeral; the unit % is implied.

Field: example entries. Status: answers known.
O=C1NCC(c2ccc(Cl)c(Cl)c2)C1c1ccc(Cl)cc1 (stereo not given): 50.4
O=C1NCC(c2ccccc2Cl)C1c1ccccc1 (stereo not given): 19.3
O=C1NCC(c2ccc(Cl)c(Cl)c2)C1c1cccc(Cl)c1 (stereo not given): 20.4

The reported inhibition of the molecule O=C1NCC(c2ccc(Cl)cc2)C1c1cccc(Cl)c1 (stereo not given) was 12.2

The reported inhibition of the molecule CNCCC(Oc1ccccc1OC)c1ccccc1 (stereo not given) was 54

====

Biological target: Sodium-dependent noradrenaline transporter (Homo sapiens, UniProt P23975)
Sequence (P23975 whole entry): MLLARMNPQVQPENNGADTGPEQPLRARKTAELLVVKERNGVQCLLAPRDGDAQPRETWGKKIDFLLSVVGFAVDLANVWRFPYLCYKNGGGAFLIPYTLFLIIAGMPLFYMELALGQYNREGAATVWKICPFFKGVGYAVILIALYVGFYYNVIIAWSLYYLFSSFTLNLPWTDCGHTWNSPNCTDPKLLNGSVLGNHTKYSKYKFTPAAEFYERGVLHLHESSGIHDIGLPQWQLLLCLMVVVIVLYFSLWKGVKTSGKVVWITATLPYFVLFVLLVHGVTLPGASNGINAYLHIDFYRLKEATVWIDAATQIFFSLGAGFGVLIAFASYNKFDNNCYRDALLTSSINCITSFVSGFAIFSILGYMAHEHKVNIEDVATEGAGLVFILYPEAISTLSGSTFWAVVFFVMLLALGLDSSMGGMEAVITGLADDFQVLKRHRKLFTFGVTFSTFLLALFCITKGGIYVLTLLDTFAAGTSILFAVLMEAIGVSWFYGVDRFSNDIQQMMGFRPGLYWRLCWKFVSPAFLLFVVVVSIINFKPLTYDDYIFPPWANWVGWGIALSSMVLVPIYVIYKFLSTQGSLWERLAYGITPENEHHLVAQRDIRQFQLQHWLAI
Experiment: Displacement of [3H]Nisoxetine from human recombinant NET over-expressed in dog MDCK cells at 10 uM
Assay type: cell-based
assayEndpoint: inhibition
Value and unit, in that order.

O=C1NCC(c2ccc(Cl)cc2)C1c1ccccc1 (centres undefined): 50%

The reported inhibition of the molecule `Clc1ccc2c(c1)[C@@H]1[C@@H](c3ccccc3)CN[C@@H]1CC2` was 10%

The reported inhibition of the molecule `Clc1ccc2c(c1)CC[C@H]1NC[C@H](c3ccccc3)[C@@H]21` was 10%

The reported inhibition of the molecule `Clc1ccc2c(c1Cl)CC[C@H]1NC[C@H](c3ccccc3)[C@@H]21` was 10%

The reported inhibition of the molecule O=C1NCC(c2ccccc2Cl)C1c1ccc(Cl)c(Cl)c1 (centres undefined) was 90%

The reported inhibition of the molecule O=C1NCC(c2ccccc2Cl)C1c1ccccc1Cl (centres undefined) was 33%

The reported inhibition of the molecule O=C1NCC(c2cccc(Cl)c2)C1c1ccc(Cl)cc1 (centres undefined) was 87%

The reported inhibition of the molecule O=C1NCC(c2ccccc2Cl)C1c1ccc2ccccc2c1 (centres undefined) was 89%

The reported inhibition of the molecule O=C1NCC(c2ccc(Cl)c(Cl)c2)C1c1cccc(Cl)c1 (centres undefined) was 93%
